Tested on: IGROV1 ovarian
ASSAY_NAME: NCI-60 one-dose screen, 48 h
CONDITION_DETAILS: 10 µM unless noted
This is part of a sample that, as a whole, favours compounds with a hit. Of some 83,000 tested, about 20% had one in any assay. The source made the active and inactive calls. The calls were made as follows: active = growth percent below 10; inactive = the rest.
Possible outcomes: 1 = active, 0 = inactive

COMPOUND | ASSAYED_SYSTEM | CLASSIFICATION
O=c1oc2ccc(Cl)cc2c(=O)n1-c1ccc(F)cc1F | IGROV1 ovarian | 0
CCOC(=O)c1sc(-c2ccc(OS(=O)(=O)c3cccs3)c(C=O)c2)nc1C | IGROV1 ovarian | 1
CCCCN1CCN(c2ccc3nc(-c4ccc5nc(-c6ccc(OCC)cc6)[nH]c5c4)[nH]c3c2)CC1 | IGROV1 ovarian | 0
CCCN1C(=O)N(CCC)C2C1NN=c1s/c(=C3\C(=O)N(C(C)C)c4ccccc43)c(=O)n12 (centres undefined) | IGROV1 ovarian | 0
COc1cc(CNC(=O)c2ccsc2Nc2ccnc(C(F)(F)F)c2)ccc1O | IGROV1 ovarian | 0
CC1(C)CC2(C)OC2C2(C1)N=NC(=Nc1ccccc1)O2 (centres undefined) | IGROV1 ovarian | 0
O=S(=O)(c1ccccc1)n1cc2c(c1-c1ccccc1)CCc1sc(Nc3ccccc3)nc1-2 | IGROV1 ovarian | 0
O=C(/C=C/c1cccc(Cl)c1)OCc1ccc2cc1OCC#C/C=C\C#CCO2 | IGROV1 ovarian | 0
Cc1ccc(N=NC2C(=O)N(c3ccc(Cl)cc3)N(c3ccc(Cl)cc3)C2=O)cc1 | IGROV1 ovarian | 0
COc1cc(/C=C2\CCC/C(=C\c3cc(CN4CCOCC4)c(O)c(OC)c3)C2=O)cc(CN2CCOCC2)c1O | IGROV1 ovarian | 0
NCCOc1ncccc1/C=C1\c2ccccc2-c2ccc(F)cc21 | IGROV1 ovarian | 0
COc1ccc(C2=C(c3cccc(OC)c3)C(=O)c3ccc(C)nc3C2=O)cc1 | IGROV1 ovarian | 0
Cc1ccc(NC2=CC(=O)C(=O)c3ccccc32)c(C)c1 | IGROV1 ovarian | 0
Nc1ccn(C2O[C@H](CO)[C@@H](O)[C@H]2O)c(=O)n1 (some centres undefined) | IGROV1 ovarian | 0
COC(=O)[C@@H]1CCCN1C(=O)[C@H]1CCCN1C(=O)[C@@H](Cc1c[nH]c2ccccc12)NC(=S)Nc1cc(C(F)(F)F)cc(C(F)(F)F)c1 | IGROV1 ovarian | 0
NC1C(N)C(N)C1N (centres undefined) | IGROV1 ovarian | 0
COc1ccc(Cn2c(Br)c3c(c2Br)-c2nc(N)sc2CC3)cc1 | IGROV1 ovarian | 0
CCOC(=O)c1sc(-c2ccc(OS(=O)(=O)c3ccccc3[N+](=O)[O-])c(C=O)c2)nc1C | IGROV1 ovarian | 1
CC/C=C\C[C@H](O)C/C=C1/C(=O)C=C[C@@H]1C/C=C\CCCC(=O)OCCS(=O)(=O)c1ccccc1 | IGROV1 ovarian | 0
COc1cc(/C=C/C(=O)c2ccc(Cl)cc2)cc(CN2CCCCC2)c1O | IGROV1 ovarian | 0
Brc1ccc(Oc2ccc(Nc3ncnc4onc(-c5ccccc5)c34)cc2)cc1 | IGROV1 ovarian | 0
Cc1ccc(OCCCCCCNCCO)c(C)c1 | IGROV1 ovarian | 1
COc1ccc(OC)c(NC(=O)/C(C#N)=C/c2ccco2)c1 | IGROV1 ovarian | 0
CCOC(=O)c1cc2c(n1Cc1cc(OC)c(OC)c(OC)c1)-c1oncc1CCC2 | IGROV1 ovarian | 0
O=C(Nc1nc2c(s1)CCc1c-2c(Br)n(Cc2ccccc2)c1Br)c1ccccc1 | IGROV1 ovarian | 0
O=S(=O)(c1ccc(NC(=S)NC23CC4CC(CC(C4)C2)C3)cc1)N1CCCCC1 | IGROV1 ovarian | 0
COc1ccc(C)c2sc(N(Cc3cccnc3)C(=O)c3ccc(C#N)cc3)nc12 | IGROV1 ovarian | 1
CN(C)CCCNCc1ccc(-c2ccc(F)c(Cl)c2)o1 | IGROV1 ovarian | 0
O=C(Nc1ccc(-c2nc3cc4ccccc4cc3[nH]2)cc1)c1cccc(Br)c1 | IGROV1 ovarian | 0
COc1cc(C(=O)NN=C2c3ccccc3-c3ccccc32)cc(OC)c1OC | IGROV1 ovarian | 0
COC(=O)[C@H](NC(=O)C1(C)CCC[C@]2(C)[C@H]3C[C@H]4C(C(C)C)=C[C@]3(CC[C@@H]12)[C@@H]1C(=O)CCC(=O)[C@@H]14)C(C)C (some centres undefined) | IGROV1 ovarian | 0
COC(=O)C1(C)CCC[C@]2(C)[C@H]3C[C@H]4C(C(C)C)=C[C@]3(CC[C@@H]12)[C@H]1[C@@H]4[C@@H](OCC#CCN2CCOCC2)CC[C@@H]1OCC#CCN1CCOCC1 (some centres undefined) | IGROV1 ovarian | 0
O=C1C(=O)c2c(ccc3ccccc23)-c2ccccc21 | IGROV1 ovarian | 1
CCOC(=O)c1cnc2ccc(Cl)cc2c1NCCCN(C)C | IGROV1 ovarian | 1
CC1=NCC2NC(=O)NC(C)=C12 (centres undefined) | IGROV1 ovarian | 0
FC(F)(F)c1cccc(Nc2nc(-c3ccccc3)nc3ncccc23)c1 | IGROV1 ovarian | 0
CCOc1ccc(Nc2ccnc3cc(Cl)ccc23)cc1 | IGROV1 ovarian | 0
CC(=O)Nc1nc2c(s1)CCc1c-2cn(S(=O)(=O)c2ccccc2)c1-c1ccccc1 | IGROV1 ovarian | 0
O=C(NC1CCN(Cc2ccccc2)CC1)c1cc(C(=O)NC2CCN(Cc3ccccc3)CC2)cc(C(=O)NC2CCN(Cc3ccccc3)CC2)c1 | IGROV1 ovarian | 1
